// OD450 lookup, one value per entry
# measured.target: T1, human MSLN-FL-his protein (human, UniProt Q13421 296-580)
# T1 construct: Made in HEK293E cells, purified on nickel column; also called hMSLN-FL-his; human MSLN full-length protein; not shown: His tag
# T1 sequence (Q13421 other isoform, or with tags, fused parts or gaps): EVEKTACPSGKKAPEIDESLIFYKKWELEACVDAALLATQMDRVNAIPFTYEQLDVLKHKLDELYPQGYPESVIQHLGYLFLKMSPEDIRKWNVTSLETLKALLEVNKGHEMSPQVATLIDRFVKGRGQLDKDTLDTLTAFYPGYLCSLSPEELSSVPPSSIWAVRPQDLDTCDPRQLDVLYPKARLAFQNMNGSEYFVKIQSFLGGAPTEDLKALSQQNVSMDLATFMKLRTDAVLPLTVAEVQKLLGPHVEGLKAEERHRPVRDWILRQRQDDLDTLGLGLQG
# procedure.details: ELISA, coated antigen, antibody 0.2 nM
The answer should be written as a number, with no unit following it.

Example results:
S009-F7.23.19 chimeric antibody (antibody, human IgG1, kappa, V domains shown, Human-murine chimeric antibody, human IgG1/kappa constant regions) VH: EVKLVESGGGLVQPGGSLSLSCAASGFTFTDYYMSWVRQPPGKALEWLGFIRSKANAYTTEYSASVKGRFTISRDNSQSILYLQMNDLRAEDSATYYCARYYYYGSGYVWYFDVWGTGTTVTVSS VL: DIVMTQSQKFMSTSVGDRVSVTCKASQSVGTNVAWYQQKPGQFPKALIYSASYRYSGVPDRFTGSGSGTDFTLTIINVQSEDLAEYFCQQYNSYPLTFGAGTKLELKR ... 2.22
S009-F7.18.10 chimeric antibody (antibody, human IgG1, kappa, V domains shown, Human-murine chimeric antibody, human IgG1/kappa constant regions) VH: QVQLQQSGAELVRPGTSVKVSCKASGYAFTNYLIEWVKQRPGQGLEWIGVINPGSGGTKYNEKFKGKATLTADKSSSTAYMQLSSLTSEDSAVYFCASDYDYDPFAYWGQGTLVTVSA VL: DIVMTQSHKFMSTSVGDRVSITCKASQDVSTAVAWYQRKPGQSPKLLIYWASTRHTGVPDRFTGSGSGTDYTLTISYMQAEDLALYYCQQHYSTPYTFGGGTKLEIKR ... 2.33

What does the data say about its OD450? Entry: S009-F7.2.3 chimeric antibody (antibody, human IgG1, kappa, V domains shown, Human-murine chimeric antibody, human IgG1/kappa constant regions) VH: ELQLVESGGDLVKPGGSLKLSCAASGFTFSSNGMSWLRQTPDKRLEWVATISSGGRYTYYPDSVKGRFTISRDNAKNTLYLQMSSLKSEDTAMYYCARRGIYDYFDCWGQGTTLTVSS VL: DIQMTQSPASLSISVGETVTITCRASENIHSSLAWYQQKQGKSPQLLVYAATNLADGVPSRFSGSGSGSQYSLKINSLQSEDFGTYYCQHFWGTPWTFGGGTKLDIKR
2.3
